Entries and their protein stability index
B1: FEM1A (parent)
chain: NIVEYLIQEQPGQEQVAGGEAQPG

# Variants of: B1
# PROCEDURE DETAILS: protein stability index of a GFP-peptide fusion (GPS, HEK-293T) (PSI 1-6); higher = more stable;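 further: lentivirally expressed fusions sorted by FACS into six bins by GFP to DsRed ratio, PSI derived from sequencing read proportions per bin multiplied by bin number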
# CONDITION LABEL: c terminus: a fixed tail appended
MEASURE: protein stability index

• Q15I = 4.08
• P23Q = 3.7
• A21N = 4.7
• Q22P = 4.02
• V16F = 3.03
• L6A = 5.36
• I7K = 5.17
• A17N = 5.16
• A17Q = 4.07
• Y5T = 5.44
• P23W = 3.03
• E14L = 3.06
• N1R = 3.19
• Q13V = 4.06
• E9L = 2.27
• I2R = 5.59
• Q15M = 3.78
• E14Q = 3.33
• E9N = 3.38
• E14K = 3.85
• I2M = 4.15
• G19W = 2.99
• G18M = 4.31
• I2T = 5.57
• G12Y = 3.12
